Tested on: YSK1
Construct: gene STK25
testContext: concentration: 1 μM, replicates: in singlicate; n = 1
Entries annotated with measured %Inh
Unit % implied. Number only.

Solved cases below.
{"substanceSmiles": "N#Cc1ccc(Oc2ccc(Nc3ncnc4cc[nH]c34)cc2Cl)cc1", "measuredOn": "YSK1", "readingUnit": "%", "%Inh": 0}
{"substanceSmiles": "CSc1ccc(NC2=C(c3ccccc3Cl)C(=O)NC2=O)cc1", "measuredOn": "YSK1", "readingUnit": "%", "%Inh": 60}
{"substanceSmiles": "Nc1nc(-c2ccc3c(N)n[nH]c3c2)cc(N2CCCCC2)n1", "measuredOn": "YSK1", "readingUnit": "%", "%Inh": 1}
{"substanceSmiles": "Cn1ccc2ncnc(Oc3ccc(NC(=O)Nc4cccnc4)c(Cl)c3)c21", "measuredOn": "YSK1", "readingUnit": "%", "%Inh": 0}

INPUT: Item: CCc1nc(-c2cccc(C)c2)c(-c2ccnc(NC(=O)c3ccccc3)c2)s1 Test system: YSK1 Read-out: %Inh Value: ?;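 note: KINOMEscan kinase panel screen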
OUTPUT: 2
